System: IGROV1 ovarian
procedureText: NCI-60 one-dose screen, 48 h (100 = growth as untreated, 0 = no growth, -100 = all killed)
conditionLabel: 10 µM
Compounds without any hit were thinned out: in the full panel of roughly 83,000, 20% have a hit.
Assignment: determine reported growth for the given compounds.
Express the result in % but write the number alone.

Lookup: growth / IGROV1 ovarian / CCC1CN1P(=O)(OCCOC)N1CC1CC (centres undefined) 111

And C[CH2][Sn]([CH2]C)([CH2]C)[NH]S(=O)(=O)c1ccc(C)cc1 ? 111

And [O]=[Sn]([CH]1CCCCC1)[CH]1CCCCC1 ? -90.9

And C[C@]12CC[C@@H]3C4=C(CC[C@H]3[C@@H]1CC[C@@H]2O)CC(=O)CC4 ? 121

And COC(=O)C(=[N+]=[N-])C(=O)OC ? 110

And CC[CH2][Pb]([CH2]CC)([CH2]CC)[O]C(=O)C(F)(F)F ? -78.8

And CC(C)N=C(NC(C)C)N1CC1 ? 123

And O=S(=O)(F)c1ncnc2nc[nH]c12 ? 103

And NC(=O)C(Cl)Cl ? 102

And CCC(C)/C=C(C)/C=C/C(=O)c1c(O)c(-c2ccc(O)cc2)c[nH]c1=O (centres undefined) ? 40.7

And CCCC(C)(C)c1ccc2c(c1)OC(C)(C)[C@@H]1CC=C(C)C[C@@H]21 ? 95.7

And c1ccc(-c2ccc3ccccc3[o+]2)cc1 ? 82.7

And ClCCN(CCCl)c1ccc(/C=C\c2ccnc3ccccc23)cc1 ? 81.6

And O=[N+]([O-])c1ccc(F)c([N+](=O)[O-])c1F ? 105
